We begin with a simple list: items and their reported inhibition at 0.3 µM.
# target-desc: recombinant human liver glycogen phosphorylase (Homo sapiens)
# Construct: made in house; host or cells: Sf9 insect cells (crude homogenate, diluted, used as the enzyme solution)
# Sequence (P06737 whole entry): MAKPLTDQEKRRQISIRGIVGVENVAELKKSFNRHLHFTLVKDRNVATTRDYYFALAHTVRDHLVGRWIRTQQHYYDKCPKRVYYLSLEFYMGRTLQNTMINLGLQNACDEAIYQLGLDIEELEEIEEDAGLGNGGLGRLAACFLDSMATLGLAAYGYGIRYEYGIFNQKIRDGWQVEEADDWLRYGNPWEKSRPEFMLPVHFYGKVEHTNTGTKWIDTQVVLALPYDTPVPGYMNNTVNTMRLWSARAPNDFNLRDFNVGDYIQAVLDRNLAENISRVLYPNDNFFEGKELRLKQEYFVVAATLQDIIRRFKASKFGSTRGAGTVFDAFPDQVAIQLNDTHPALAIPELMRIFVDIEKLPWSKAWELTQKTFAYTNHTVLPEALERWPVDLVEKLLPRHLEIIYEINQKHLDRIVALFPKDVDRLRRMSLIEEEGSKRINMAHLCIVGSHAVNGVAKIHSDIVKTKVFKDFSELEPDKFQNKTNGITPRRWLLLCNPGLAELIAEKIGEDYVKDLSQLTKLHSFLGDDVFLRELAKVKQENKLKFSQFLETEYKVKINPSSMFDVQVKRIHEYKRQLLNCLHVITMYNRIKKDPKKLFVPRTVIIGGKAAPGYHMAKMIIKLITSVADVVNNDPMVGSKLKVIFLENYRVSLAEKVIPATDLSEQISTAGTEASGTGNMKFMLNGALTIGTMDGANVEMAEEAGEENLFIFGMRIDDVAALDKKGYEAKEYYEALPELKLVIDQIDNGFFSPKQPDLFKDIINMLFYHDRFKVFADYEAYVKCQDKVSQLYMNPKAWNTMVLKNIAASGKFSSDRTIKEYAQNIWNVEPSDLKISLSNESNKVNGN
# assay-explanation: Measuring liver glycogen phosphorylase activity (forward reaction system, NADPH absorbance at 340 nm)
# Assay type: biochemical
# condition-info: compound concentration 300 nmol (in parentheses); read-out: inhibition rate (%) at a certain concentration
Write the value in % as a bare number.

CCN(CCN(C)C)C(=O)c1cc(NC(=O)c2cc(F)c(F)cc2Cl)[nH]n1
13.4

// inhibition at 0.3 µM lookup, compound = `Cc1ccc(Cl)cc1C(=O)Nc1cc(C(=O)NCc2ccccc2)n[nH]1` , result: 38
